# Tested on: rodent lifetime carcinogenesis bioassay, tumor incidence TD50
# test: carcinogenic potency in animals, long-term in vivo studies, CPDB compilation (AID 1745844)
# condition_context: mouse; strain B6C3F1; males; by gavage; site: liver + mesenteric lymph node + multiple organs + small intestine + spleen; lesion: malignant lymphoma, NOS + malignant lymphoma, mixed type + malignant lymphoma, lymphocytic type + malignant lymphoma, histiocy; dosed 103 weeks; study length 104 weeks
property_label: TD50

Measured TD50 of CCCC(Cl)CCCC(Cl)CCC(Cl)CCC(Cl)CCC(Cl)CCCC(Cl)CCC (stereo unspecified) : 6540 mg/kg/day

* * *

# Test system: rodent lifetime carcinogenesis bioassay, tumor incidence TD50
# test: carcinogenic potency in animals, long-term in vivo studies, CPDB compilation (AID 1745844)
# condition_context: rat; strain Fischer 344; females; by gavage; site: mammary gland; lesion: adenocarcinoma; dosed 37 weeks; study length 60 weeks
property_label: TD50

Measured TD50 of NC(=O)N(CCO)N=O : 0.452 mg/kg/day

* * *

# System: rodent lifetime carcinogenesis bioassay, tumor incidence TD50
# test: carcinogenic potency in animals, long-term in vivo studies, CPDB compilation (AID 1745844)
# condition_context: mouse; strain Swiss albino; females; in drinking water; site: lung; lesion: several types; types named in the paper; dosed 105 weeks; study length 105 weeks
property_label: TD50

Measured TD50 of C=CCNN : 38.4 mg/kg/day

* * *

# System: rodent lifetime carcinogenesis bioassay, tumor incidence TD50
# test: carcinogenic potency in animals, long-term in vivo studies, CPDB compilation (AID 1745844)
# condition_context: mouse; strain CF-1; females; in feed; site: liver; lesion: liver-cell tumor, type B; dosed 122 weeks; study length 138 weeks
property_label: TD50 (mg/kg/day)
A number alone suffices; assume mg/kg/day.

Measured TD50 of ClC1=C(Cl)[C@]2(Cl)[C@@H]3[C@@H]4C[C@@H]([C@H]5O[C@@H]45)[C@@H]3[C@@]1(Cl)C2(Cl)Cl : 1.96

* * *

# Test system: rodent lifetime carcinogenesis bioassay, tumor incidence TD50
# test: carcinogenic potency in animals, long-term in vivo studies, CPDB compilation (AID 1745844)
# condition_context: rat; strain Wistar; males; in drinking water; site: any site (literature study); lesion: one or several types; types not named; dosed 90 weeks; study length 90 weeks
property_label: TD50
Don't forget the unit after the number, please.

Measured TD50 of NC(=O)N(CCO)N=O : 0.576 mg/kg/day

* * *

# System: rodent lifetime carcinogenesis bioassay, tumor incidence TD50
# test: carcinogenic potency in animals, long-term in vivo studies, CPDB compilation (AID 1745844)
# condition_context: mouse; strain ASH-CS1; females; in feed; site: lung; lesion: papillary adenoma; dosed 80 weeks; study length 80 weeks
Calls of active or inactive are those of the source. The rule behind the calls is not given here.
property_label: TD50

Measured TD50 of O=S(=O)(O)c1ccc(N=Nc2cc(S(=O)(=O)O)c3ccccc3c2O)c2ccccc12 : 32900 mg/kg/day (inactive)

* * *

# Test system: rodent lifetime carcinogenesis bioassay, tumor incidence TD50
# test: carcinogenic potency in animals, long-term in vivo studies, CPDB compilation (AID 1745844)
# condition_context: rat; strain Fischer 344; females; by gavage; site: lung; lesion: alveolar/bronchiolar adenoma + alveolar/bronchiolar carcinoma; dosed 100 weeks; study length 104 weeks
property_label: TD50 (mg/kg/day)
A number alone suffices; assume mg/kg/day.

Observed TD50, rodent lifetime carcinogenesis bioassay, tumor incidence TD50, CC(C)=CCl : 218

* * *

# System: rodent lifetime carcinogenesis bioassay, tumor incidence TD50
# test: carcinogenic potency in animals, long-term in vivo studies, CPDB compilation (AID 1745844)
# condition_context: mouse; strain B6C3F1; males; inhaled; site: all sites; lesion: histiocytic sarcoma; dosed 82 weeks; study length 104 weeks
property_label: TD50

Measured TD50 of C=CC=C : 157 mg/kg/day

* * *

# Tested on: rodent lifetime carcinogenesis bioassay, tumor incidence TD50
# test: carcinogenic potency in animals, long-term in vivo studies, CPDB compilation (AID 1745844)
# condition_context: rat; strain Fischer 344; males; in feed; site: thyroid gland; lesion: follicular-cell adenoma + follicular-cell carcinoma; dosed 12 weeks; study length 103 weeks
property_label: TD50
Don't forget the unit after the number, please.

Measured TD50 of OCC(CO)(CBr)CBr : 82.6 mg/kg/day

* * *

# Tested on: rodent lifetime carcinogenesis bioassay, tumor incidence TD50
# test: carcinogenic potency in animals, long-term in vivo studies, CPDB compilation (AID 1745844)
# condition_context: rat; strain Wistar-random; males; inhaled; site: respiratory system; lesion: carcinoma; dosed 124 weeks; study length 124 weeks
property_label: TD50 (mg/kg/day)
A number alone suffices; assume mg/kg/day.

Measured TD50 of CC1CO1 (stereo unspecified) : 896

* * *

# Tested on: rodent lifetime carcinogenesis bioassay, tumor incidence TD50
# test: carcinogenic potency in animals, long-term in vivo studies, CPDB compilation (AID 1745844)
# condition_context: hamster; strain Syrian Golden; males; by gavage; site: lung; lesion: adenoma; dosed 46 weeks; study length 69 weeks
property_label: TD50

Measured TD50 of CC1CN(N=O)CC(C)N1C (stereo unspecified) : 1.73 mg/kg/day

* * *

# Tested on: rodent lifetime carcinogenesis bioassay, tumor incidence TD50
# test: carcinogenic potency in animals, long-term in vivo studies, CPDB compilation (AID 1745844)
# condition_context: rat; strain Charles River CD (Sprague-Dawley); females; by gavage; site: liver; lesion: hepatocellular adenoma; dosed 104 weeks; study length 104 weeks
property_label: TD50 (mg/kg/day)
A number alone suffices; assume mg/kg/day.

Observed TD50, rodent lifetime carcinogenesis bioassay, tumor incidence TD50, CC(C)n1c(/C=C/[C@H](O)C[C@H](O)CC(=O)O)c(-c2ccc(F)cc2)c2ccccc21 : 2780

* * *

# System: rodent lifetime carcinogenesis bioassay, tumor incidence TD50
# test: carcinogenic potency in animals, long-term in vivo studies, CPDB compilation (AID 1745844)
# condition_context: mouse; strain B6C3F1; males; in feed; site: liver; lesion: hepatocellular adenoma + hepatocellular carcinoma + neoplastic nodule; dosed 78 weeks; study length 96 weeks
property_label: TD50

Measured TD50 of COc1ccc(N)cc1N : 926 mg/kg/day

* * *

Attribute: TD50
# Test system: rodent lifetime carcinogenesis bioassay, tumor incidence TD50
# test: carcinogenic potency in animals, long-term in vivo studies, CPDB compilation (AID 1745844)
# condition_context: rat; strain Sprague-Dawley; males; i.p.; site: any site (literature study); lesion: several types; types named in the paper; dosed 52 weeks; study length 83 weeks
A number alone suffices; assume mg/kg/day.

compound	TD50 (mg/kg/day)
CC[C@H]1CN2CCc3cc(OC)c(OC)cc3[C@@H]2C[C@@H]1C[C@H]1NCCc2cc(OC)c(OC)cc21	0.382

Kindly review the next compound as well.
Measured TD50 of CC(COc1ccccc1)N(CCCl)Cc1ccccc1 (configuration not stated) : 0.555

* * *

# System: rodent lifetime carcinogenesis bioassay, tumor incidence TD50
# test: carcinogenic potency in animals, long-term in vivo studies, CPDB compilation (AID 1745844)
# condition_context: hamster; strain Syrian Golden; males; by gavage; site: lung; lesion: carcinoma; dosed 46 weeks; study length 69 weeks
property_label: TD50

Measured TD50 of CC1CN(N=O)CC(C)N1C (stereo unspecified) : 3.2 mg/kg/day

* * *

# System: rodent lifetime carcinogenesis bioassay, tumor incidence TD50
# test: carcinogenic potency in animals, long-term in vivo studies, CPDB compilation (AID 1745844)
# condition_context: rat; strain Fischer 344; females; in drinking water; site: Zymbal's gland; lesion: adenoma; dosed 98 weeks; study length 104 weeks
property_label: TD50 (mg/kg/day)
A number alone suffices; assume mg/kg/day.

Observed TD50, rodent lifetime carcinogenesis bioassay, tumor incidence TD50, Cc1ccc(S(=O)(=O)Oc2ccc(N=Nc3ccc(-c4ccc(N=Nc5c(O)ccc6cc(S(=O)(=O)O)cc(S(=O)(=O)O)c56)c(C)c4)cc3C)cc2)cc1 : 65.4

* * *

# Tested on: rodent lifetime carcinogenesis bioassay, tumor incidence TD50
# test: carcinogenic potency in animals, long-term in vivo studies, CPDB compilation (AID 1745844)
# condition_context: rat; strain Fischer 344; females; in feed; site: liver; lesion: hepatocellular adenoma + hepatocellular carcinoma + neoplastic nodule; dosed 104 weeks; study length 105 weeks
property_label: TD50 (mg/kg/day)
A number alone suffices; assume mg/kg/day.

Worked cases, answers included:
compound	TD50 [mg/kg/day]
COc1ccc(C)cc1N	2180
CN(C)NC(=O)CCC(=O)O	9640

Kindly review the next compound as well.
Measured TD50 of ClC1(Cl)C2(Cl)C3(Cl)C4(Cl)C(Cl)(Cl)C5(Cl)C3(Cl)C1(Cl)C5(Cl)C24Cl (stereo not drawn) : 3.17

* * *

# Tested on: rodent lifetime carcinogenesis bioassay, tumor incidence TD50
# test: carcinogenic potency in animals, long-term in vivo studies, CPDB compilation (AID 1745844)
# condition_context: rat; strain Wistar-random; females; in feed; site: urinary bladder; lesion: transitional-cell papilloma; dosed 78 weeks; study length 78 weeks
property_label: TD50 (mg/kg/day)
A number alone suffices; assume mg/kg/day.

Observed TD50, rodent lifetime carcinogenesis bioassay, tumor incidence TD50, O=C(O)O : 8280
